Listed here: items and their measured Z.LYZ.NS (standard z score).
- Tested on: ISC-enriched organoids
- Protocol Details: Primary screen, 384-well 2.5-D organoid differentiation (ENR+CD, 6 days): basal lysozyme secretion (LYZ.NS)
- Type: cell-based, murine
- Conditions: dose 0.08 uM

# Molecule, Z.LYZ.NS (standard z score)
data = [
    ("NC(=O)c1cccc(-c2cccc(OC(=O)NC3CCCCC3)c2)c1 [URB597]", 0.754),
    ("COc1cc2c(Nc3ccc(NC(=O)c4ccccc4)cc3)ncnc2cc1OCCCN1CCOCC1 [ZM 447439]", 0.896),
    ("COCC[n+]1c2c(n(Cc3cnccn3)c1C)C(=O)c1ccccc1C2=O.[Br-] [YM155 (Sepantronium Bromide)]", 0.995),
    ("CC(C)C[C@@H](C(=O)N[C@H](C(=O)OC1CCCC1)c1ccccc1)[C@H](O)C(=O)NO [Tosedostat (CHR2797)]", "−0.022"),
]

The values you see were collected from patent US20230398130A1.
